Reported values of melting point for individual entries

{"compound": "CCCCc1nnc(-c2ccncc2)n1Cc1ccc(N)cc1", "melting point": "63.5 to 64.5 °C"}
{"compound": "COCOc1cc(OC)ccc1C=O", "melting point": "55 to 56 °C"}
{"compound": "CN(C)CCCCNC(=O)c1cccc(-c2nnc(CSCCOc3ccccc3)o2)c1", "melting point": "38 to 42 °C"}
{"compound": "O=C(NN1CCN(CCc2c[nH]c3ccccc23)CC1)c1ccccc1", "melting point": "227 to 229 °C"}
{"compound": "CCc1noc(-c2cn(-c3c[nH]c4ccccc34)cn2)n1", "melting point": "198 to 199 °C"}
{"compound": "O=C(O)C1=C(c2cccs2)c2cc(Cl)ccc2OC1C(F)(F)F (stereo unspecified)", "melting point": "201 to 207 °C"}
{"compound": "Cc1cc(-c2ccc(Cl)c(Cl)c2)nc(-n2cnc(-c3cccc(S(N)(=O)=O)c3)c2)n1", "melting point": "210 °C"}
{"compound": "N#Cc1c(SCCl)nsc1SCCl", "melting point": "92 to 93 °C"}
{"compound": "CCOC1Nc2c(ccc(OC)c2O)C(=O)N2CCCC12 (stereo unspecified)", "melting point": "155 to 158 °C"}
{"compound": "CC(C)c1nc(CO)n(Cc2ccccc2[N+](=O)[O-])c1Sc1cc(Cl)cc(Cl)c1", "melting point": "160 to 166 °C"}
{"compound": "CCOC(=O)c1cn(-c2c(F)cc(F)c([N+](=O)[O-])c2F)c2c(Cl)c(F)c(F)cc2c1=O", "melting point": "167 to 169 °C"}
{"compound": "Cc1nc(-n2cc(C(O)c3ccccc3)nn2)sc1C(=O)NCc1ccccc1 (stereo unspecified)", "melting point": "143 to 146 °C"}
{"compound": "CON=C(C1=Nc2ccc(Cl)cc2C(c2ccccc2F)=NC1)[N+](=O)[O-]", "melting point": "130 to 133 °C"}
{"compound": "Nc1ccc(C2CCSCC2)cc1", "melting point": "103 to 106 °C"}
{"compound": "COC(=O)NNC(=O)C(O)(c1ccccc1)c1ccccc1", "melting point": "160 to 161 °C"}
{"compound": "CC(C)(Oc1ccc(OCc2ccccc2)cc1)C(=O)O", "melting point": "134 to 137 °C"}
{"compound": "CC(=O)n1ncc2c(OCc3ccccc3)cc(C)cc21", "melting point": "91 to 93 °C"}
{"compound": "c1cnc2ccc(Cn3nnc4ccc(-c5cnn(C6CCNCC6)c5)nc43)cc2c1", "melting point": "188 to 191 °C"}
{"compound": "CCCN1CCCC2c3nc(N)sc3CCC21 (stereo unspecified)", "melting point": "163 to 181 °C"}
{"compound": "O=C(Cn1c(-c2ccc(F)cc2)ncc(NC(=O)OCc2ccccc2)c1=O)NC(Cc1ccccc1)C(=O)C1=NCCO1 (stereo unspecified)", "melting point": "215 to 220 °C"}
{"compound": "CCCCCCCCCCN1CCCN(O)C1=O", "melting point": "45 to 46 °C"}

----------
melting point overview
quantity: melting point

{"molecule": "COc1cc(Cl)c(Nc2nc(C)ccc2S(=O)(=O)c2ccc(OCc3ccccc3OC)cc2)cc1F", "obsValue": "62 to 64 °C"}
{"molecule": "CCCn1nnc(NC(=O)C2c3ccccc3Oc3ccccc32)n1", "obsValue": "208 to 209 °C"}
{"molecule": "Clc1cc(CC(Cl)(Cl)Cl)cnc1Cl", "obsValue": "98 to 99 °C"}
{"molecule": "O=C(NC1N=C(c2ccccc2F)c2ccccc2N(C(=O)c2ccc(Cl)cc2)C1=O)c1ccc(Cl)cc1 (racemic)", "obsValue": "190 to 191 °C"}
{"molecule": "O=S(=O)(NCCN1CCOCC1)C(F)(F)F", "obsValue": "106 to 108 °C"}
{"molecule": "Cc1cc(C(N)=O)ncc1C(c1c(F)ccc(F)c1F)S(=O)(=O)c1ccc(F)c(F)c1 (centres undefined)", "obsValue": "200 to 201 °C"}
{"molecule": "O=C(NC1CCCCC1)C1=C(c2ccccc2)C(c2ccccc2)OC1=O (centres undefined)", "obsValue": "151 to 153 °C"}
{"molecule": "CC(=O)c1cc2c(cc1NC(=O)c1cccc3ccccc13)OCO2", "obsValue": "143 to 144 °C"}
{"molecule": "Cc1cc(NC(=O)N(C)C)no1", "obsValue": "150 to 152 °C"}
{"molecule": "COc1ccc(C(C)(O)c2cccc(OCc3nc(-c4ccccc4)oc3C)c2)c(OCCOC(C)=O)c1 (centres undefined)", "obsValue": "144 to 145 °C"}
{"molecule": "COC(=O)C(C(C)C)N(C)S(=O)(=O)c1ccc(-c2ccc(NC(=O)c3oc4cccc(C(O)CO)c4c3C)cc2)cc1 (centres undefined)", "obsValue": "182 to 185 °C"}
{"molecule": "Cc1c(C)n(C2CC2)c2c(OCc3ccccc3)nncc12", "obsValue": "121 to 122 °C"}
{"molecule": "CCC(c1ccc(C(O)(C(F)(F)F)C(F)(F)F)cc1)S(=O)(=O)c1ccccc1 (centres undefined)", "obsValue": "148 °C"}
{"molecule": "COc1ccc(-c2cc3cc(Br)ccc3o2)cc1", "obsValue": "189 °C"}
{"molecule": "CC(C)c1ccc(N(Cc2ccc(OCC(F)(F)F)cc2)C(=O)Nc2c(C(C)C)cccc2C(C)C)cc1", "obsValue": "138 °C"}
{"molecule": "COc1cc(/C=C/C(=O)CC(=O)c2ccc(O)c(OC)c2)ccc1O", "obsValue": "170 to 172 °C"}
{"molecule": "O=C1OC(c2ccccc2)(c2ccccc2)C2CN(C3CCN(Cc4ccccc4)CC3)CCN12 (centres undefined)", "obsValue": "153 to 155 °C"}
{"molecule": "COc1ccc([C@H]2O[C@](O[Si](C)(C)C)(C(F)(F)F)C(C)(C)N2C(=O)c2ccccc2)cc1 (racemic)", "obsValue": "120 to 123 °C"}
{"molecule": "CCCc1c(OCC(=O)NCCCCc2cccnc2)ccc(C(C)=O)c1O", "obsValue": "95 to 97 °C"}

----------
Entries and their measured melting point follow.
quantity: melting point

{"compound": "CCNc1ccc2c(c1)CN(c1c(F)cc3c(=O)c(C(=O)O)cn4c3c1OCC4C)C2 (stereo not given)", "obsValue": "> 300 °C"}
{"compound": "COc1cc(C=C2CCc3c2nc2ccc(Cl)cn2c3=O)cc(OC)c1OC", "obsValue": "222 to 223 °C"}
{"compound": "C[Si](C)(C)C#Cc1cc2cccnc2c(-c2cccc([N+](=O)[O-])c2)n1", "obsValue": "160 to 163 °C"}
{"compound": "O=CN(O)C(CCc1ncc(F)cn1)CS(=O)(=O)N1CCN(c2ccc(Cl)cn2)CC1 (stereo not given)", "obsValue": "154 to 155 °C"}
{"compound": "CCOc1cc2c3ccccc3c(C=O)cc2c2ccccc12", "obsValue": "174 to 176 °C"}

----------
quantity: melting point (°C)

{"moleculeSmiles": "O=C(O)c1ccc(-c2ccc(OCCCCCCO)cc2)cc1", "quantity": "melting point", "measureUnit": "°C", "obsValue": 235}
{"moleculeSmiles": "O=C(Nc1ccc(C[C@H](NS(=O)(=O)NCC2CCCCC2)C(=O)O)cc1)c1c(Cl)cncc1Cl", "quantity": "melting point", "measureUnit": "°C", "obsValue": 196}

----------
# melting point values compiled below

{"compound": "COc1ccc(OCC(O)COc2cccc(O)c2C(C)=O)cc1 (stereo unspecified)", "melting point": "100 to 102 °C"}
{"compound": "CC(C)(C)c1cc(-c2nn(CC(N)=O)c3ncccc23)cc(C(C)(C)C)c1O", "melting point": "162 to 164 °C"}
{"compound": "Cc1cc(N2CCNCC2)ccc1NS(C)(=O)=O", "melting point": "79 to 81 °C"}
{"compound": "CCn1cc(C(=O)O)c(=O)c2cc(F)c(N3CCNC(c4ccco4)C3)cc21 (stereo unspecified)", "melting point": "198 °C"}
{"compound": "Clc1ncccc1OCC1CO1 (stereo unspecified)", "melting point": "132 °C"}
{"compound": "COc1cc(OC)nc(Oc2cccc(Oc3ccccc3)c2C(=O)O)n1", "melting point": "116 to 118 °C"}
{"compound": "CSC(=NS(=O)(=O)c1ccccc1)Nc1ccc(C#N)cc1", "melting point": "150 °C"}
{"compound": "O=C(CBr)c1ccc(OCc2ccccc2)c(OCc2ccccc2)c1Cl", "melting point": "94 to 96 °C"}
{"compound": "CN(C)CC1CCCN(c2cc3ccccc3c(=O)[nH]2)C1 (stereo unspecified)", "melting point": "141 to 143 °C"}
{"compound": "CN1C(=O)C2CC2(c2ccc(N(C)C)cc2)C1=O (stereo unspecified)", "melting point": "140 °C"}
{"compound": "COc1cc2c(cc1OC)C(c1c(Cl)cccc1Cl)NC(=O)C2 (stereo unspecified)", "melting point": "228 to 229 °C"}

meta.source: a melting point compilation (Tetko et al.; mined from patent text by program, amines drawn as free bases though some values may be those of a salt)
